Values compiled from patent US9199943B2.

- Tested on: ABUTH = velvetleaf (Abutilon theophrasti)
- Assay Protocol: General postemergence herbicidal activity, velvetleaf
- Format: in vivo
- Conditions Used: Abutilon theophrasti, post-emergence, 336 h; post-emergent, 140 g ai/ha, visual score after 14 days (0 no injury, 100 complete kill)
Readings of pest or weed control at 140 g/ha for the listed compounds

Record Smiles | pest or weed control at 140 g/ha, %
Nc1nc(-c2ccc(Cl)c(C(F)F)c2F)nc(C(=O)O)c1Cl | 80
COc1c(Cl)ccc(-c2nc(N)c(Cl)c(C(=O)O)n2)c1Cl | 75
COC(=O)c1nc(-c2ccc(Cl)c(OC)c2F)nc(N)c1Cl | 100
COc1c(Cl)ccc(-c2nc(N)c(Cl)c(C(=O)O)n2)c1F | 100
